- Assayed target: P-gp (MDR1) (Homo sapiens, UniProt P08183)
- Sequence (P08183 whole entry): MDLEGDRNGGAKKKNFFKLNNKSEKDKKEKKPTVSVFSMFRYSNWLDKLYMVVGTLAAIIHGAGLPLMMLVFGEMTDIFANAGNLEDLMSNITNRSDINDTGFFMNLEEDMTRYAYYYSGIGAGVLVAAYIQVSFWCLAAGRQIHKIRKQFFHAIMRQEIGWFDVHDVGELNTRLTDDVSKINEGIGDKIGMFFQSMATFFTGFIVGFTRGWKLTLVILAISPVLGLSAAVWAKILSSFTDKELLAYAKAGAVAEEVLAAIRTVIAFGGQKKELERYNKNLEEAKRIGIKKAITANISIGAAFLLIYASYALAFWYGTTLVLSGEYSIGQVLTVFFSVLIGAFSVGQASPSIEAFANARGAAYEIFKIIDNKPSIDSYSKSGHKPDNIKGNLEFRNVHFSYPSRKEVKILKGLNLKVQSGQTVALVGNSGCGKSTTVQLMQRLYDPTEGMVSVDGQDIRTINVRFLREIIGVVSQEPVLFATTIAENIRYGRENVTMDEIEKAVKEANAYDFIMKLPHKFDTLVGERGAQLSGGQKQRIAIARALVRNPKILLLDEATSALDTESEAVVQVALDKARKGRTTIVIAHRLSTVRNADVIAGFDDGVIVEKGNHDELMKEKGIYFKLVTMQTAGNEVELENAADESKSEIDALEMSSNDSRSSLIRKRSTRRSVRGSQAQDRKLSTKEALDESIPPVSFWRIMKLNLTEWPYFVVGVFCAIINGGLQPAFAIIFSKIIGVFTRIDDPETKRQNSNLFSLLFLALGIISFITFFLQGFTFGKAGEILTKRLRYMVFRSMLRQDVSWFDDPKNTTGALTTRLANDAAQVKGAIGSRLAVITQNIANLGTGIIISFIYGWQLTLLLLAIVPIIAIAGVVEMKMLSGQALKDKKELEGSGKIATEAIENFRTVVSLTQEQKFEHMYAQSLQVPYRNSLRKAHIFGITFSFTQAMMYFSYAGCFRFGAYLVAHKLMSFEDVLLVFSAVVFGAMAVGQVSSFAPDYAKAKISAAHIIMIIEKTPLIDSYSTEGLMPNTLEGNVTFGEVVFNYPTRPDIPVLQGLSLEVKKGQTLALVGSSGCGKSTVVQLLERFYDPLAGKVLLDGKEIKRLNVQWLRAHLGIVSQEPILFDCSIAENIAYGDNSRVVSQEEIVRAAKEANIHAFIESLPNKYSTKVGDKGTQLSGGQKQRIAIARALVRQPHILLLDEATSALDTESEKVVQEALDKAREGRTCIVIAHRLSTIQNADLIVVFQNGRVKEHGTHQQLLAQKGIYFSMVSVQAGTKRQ
- Test summary: Bidirectional permeability in MDR1-MDCKII cells with and without GF120918
- Experimental parameters: dog, MDCK-MDR1
Measured parameter: Papp B→A at 2.5 h (×10⁻⁶ cm/s)
One number for each entry, in ×10⁻⁶ cm/s.

Guide cases for Papp B→A at 2.5 h, answers given:
- Compound: "CCOC(=O)N1CCC(C(=O)NC2CCCOc3c2nn(-c2ccccc2Cl)c3-c2ccc(Cl)cc2)CC1 (stereo not drawn) [BNS816]"
  Measured parameter: "Papp B→A at 2.5 h"
  Recorded measurement: 5.37
- Compound: "O=S(=O)(NC1CCCOc2c1nn(-c1ccccc1Cl)c2-c1ccc(Cl)cc1)c1ccc(Cl)cc1 (stereo not drawn) [BNS808]"
  Measured parameter: "Papp B→A at 2.5 h"
  Recorded measurement: 1.01

Alright, here's another compound for you.
Exercise: Any idea what its Papp B→A at 2.5 h is? The compound is CS(=O)(=O)N1CCC(C(=O)NC2CCCOc3c2nn(-c2ccccc2Cl)c3-c2ccc(Cl)cc2)CC1 (stereo not drawn) [BNS815]
Solution: 18.9
